assay: differential killing of epithelial or mesenchymal cells, primary screen, imaging, PC-3E GFP, TEM4-18 mCherry, co-culture (AID 1345086); settings: imaging cell counts, measured here: epithelial PC-3E GFP cell survival, at 1 µM;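 note: cells exposed to compound for 72 h before imaging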
measurementType: normalised cell number
// print number alone

1) COc1ccc2c(c1)OCc1c-2oc2cc(OC)ccc12 ... 1.14
2) COc1c(C)c2c(c(O)c1C/C=C(\C)CCC(=O)O)C(=O)OC2 ... 0.58
3) CC(=O)Nc1ccc(C(=O)O)cc1 ... 0.87
4) NC(N)=NC(N)=Nc1ccccc1 ... 1.24
5) O=C1c2ccc(O)c(O)c2C(=O)c2c(O)ccc(O)c21 ... 0.82
6) COc1c(O)cccc1O ... 0.96
7) CCOc1ccc(C(=O)c2ccc(OC)c(O)c2O)cc1 ... 0.9
8) CN1CCN(c2c(F)cc3c(=O)c(C(=O)O)cn4c3c2OCN4C)CC1 ... 1.17
9) CCCCCCCC/C=C/CCCCCCCCOP(=O)([O-])OCC[N+](C)(C)C ... 1.36
10) COc1cc(OC)c2c(=O)c(-c3ccc4c(c3)OCO4)coc2c1 ... 1.13

What the record says about CN1C(CC(=O)c2ccccc2)CCCC1CC(O)c1ccccc1 (centres undefined) : normalised cell number is 0.88

Reported normalised cell number ( "O=C(CCCN1CCC(O)(c2ccc(Br)cc2)CC1)c1ccc(F)cc1" ) = 1.27
